Each recorded value in this set is attributed to patent EP1914236A1.

system_tested: human B2 bradykinin receptors (Homo sapiens)
Construct: purchased Receptor Biology, Inc. (Baltimore, MD); host or cells: CHO-K1 cells transfected with the human B2 receptor (membranes)
Sequence (P30411 1-391): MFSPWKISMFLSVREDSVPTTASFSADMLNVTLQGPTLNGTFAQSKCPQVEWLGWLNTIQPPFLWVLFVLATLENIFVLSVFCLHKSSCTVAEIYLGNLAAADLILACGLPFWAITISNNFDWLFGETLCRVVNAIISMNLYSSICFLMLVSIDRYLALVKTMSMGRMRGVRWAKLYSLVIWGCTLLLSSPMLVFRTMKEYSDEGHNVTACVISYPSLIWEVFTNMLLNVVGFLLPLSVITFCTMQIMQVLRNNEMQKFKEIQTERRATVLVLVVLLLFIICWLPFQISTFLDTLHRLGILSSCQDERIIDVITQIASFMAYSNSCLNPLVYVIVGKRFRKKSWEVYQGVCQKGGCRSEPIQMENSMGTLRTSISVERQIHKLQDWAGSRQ
protocol: Bradykinin B2 (BK2) Receptor Binding Assay
protocol_conditions: membranes of CHO-K1 cells transfected with human B2 bradykinin receptors; ~0.25 nM [3H]NPC17731; 60 min at 25°C
measured_property: pKi
Kindly note that pKi refers to -log10 of the concentration in mol/L and answer with the value alone.

{"smiles_string": "Cc1ccc2cccc(OCc3c(C)ccc(N(C)C(=O)CCc4ccc(C(=O)c5cccs5)n4C)c3C)c2n1", "pKi": 6.85}
{"smiles_string": "Cc1ccc2cccc(OCc3c(Cl)ccc(N(C)C(=O)Cc4ccc(C(=O)c5ccc(Cl)cc5)n4C)c3Cl)c2n1", "pKi": 6.12}
{"smiles_string": "Cc1ccc2cccc(OCc3c(C)ccc(N(C)C(=O)CCc4ccc(C(=O)c5ccncc5)n4C)c3C)c2n1", "pKi": 6.35}
{"smiles_string": "Cc1ccc2cccc(OCc3c(Cl)ccc(N(C)C(=O)Cc4ccc(C(=O)CN(C)c5ccccn5)n4C)c3Cl)c2n1", "pKi": 6.29}

-- ask What value of pKi on human B2 bradykinin receptors (Homo sapiens) does `Cc1ccc2cccc(OCc3c(Cl)ccc(N(C)C(=O)Cc4ccc(C(=O)c5ccc(C)s5)n4C)c3Cl)c2n1` have?
-- reply 6.15

-- ask Consider next the compound `CCCCn1c(CC(=O)N(C)c2ccc(Cl)c(COc3cccc4ccc(C)nc34)c2Cl)ccc1C(=O)c1ccc(C#N)cc1` in the same way.
-- reply 7.54

-- ask Consider next the compound `COc1ccc(C(=O)c2ccc(CC(=O)N(C)c3ccc(Cl)c(COc4cccc5ccc(C)nc45)c3Cl)[nH]2)cc1` in the same way.
-- reply 7.15
